Tested on: L1210 leukemia ip in BDF1 mice, survival T/C
Assay: NCI In Vivo Anticancer Drug Screen. Data for tumor model L1210 Leukemia (intraperitoneal) in B6D2F1 (BDF1) mice
Conditions: endpoint: mean survival time; dose: 5.0 mg/kg/injection; schedule: Q01DX001 (ip); vehicle: other; higher = longer survival
Toxic doses and inconclusive results are not listed.
What T/C was measured for each of the following?

Query string: Please report T/C for the following compound: c1cc[c]([Pb]([c]2ccccc2)([c]2ccccc2)[n]2cnc3cncnc32)cc1
Result string: 103 % of control

Query string: Please report T/C for the following compound: CC1(C)N=C(N)N=C(N)N1c1ccc2ccccc2c1
Result string: 105 % of control

Query string: Please report T/C for the following compound: [O-]c1n[n+](C2CCCCC2)no1
Result string: 106 % of control

Query string: Please report T/C for the following compound: CCOC(=O)[C@H]1CCC[C@@H](NC(=O)N(CCCl)N=O)C1
Result string: 108 % of control

Query string: Please report T/C for the following compound: CCOC(=O)Cc1c(C)[nH]c2c(C)ccc(C)c12
Result string: 94 % of control

Query string: Please report T/C for the following compound: CCN1/C(=C/C=C/C=C/c2sc3ccccc3[n+]2CC)Sc2ccccc21
Result string: 107 % of control
